target: rat Adrenergic, Alpha 1A Receptor (Adra1A), Adra1a (gene 29412); test: NVS_GPCR_rAdra1A: NovaScreen (NVS) G Protein-Coupled Receptor Assay for rat Adrenergic, Alpha 1A Receptor (Adra1A) (AID 2283296)
Records with an inconclusive call do not appear. Activity calls are given as the source filed them. Rule for the calls: active = hit-call score of the fitted dose curve at least 0.9, where 1 is the maximum; inconclusive = response in the unintended direction; inactive = score below 0.9.
Possible outcomes: label 1 (active), label 0 (inactive)

INSERT INTO measurements (smiles_code, assigned_class) VALUES
  ('CCc1nc(N)nc(N)c1-c1ccc(Cl)cc1', 'label 1'),
  ('O=C(N[C@@H](c1ccccc1)[C@@H]1CCCCN1)c1cccc(C(F)(F)F)c1Cl', 'label 1'),
  ('Cc1ccc(C(C)(C)C)c(O)c1', 'label 0'),
  ('CSc1ccc(Oc2ccc(S(N)(=O)=O)cc2CN(C)C)cc1C', 'label 1'),
  ('CN(C)C(=O)NC1(c2ccccc2)CCN(CCC[C@]2(c3ccc(Cl)c(Cl)c3)CCCN(C(=O)c3ccccc3)C2)CC1', 'label 0');
